Biological target: Msn1 (UniProt P22148)
Sequence: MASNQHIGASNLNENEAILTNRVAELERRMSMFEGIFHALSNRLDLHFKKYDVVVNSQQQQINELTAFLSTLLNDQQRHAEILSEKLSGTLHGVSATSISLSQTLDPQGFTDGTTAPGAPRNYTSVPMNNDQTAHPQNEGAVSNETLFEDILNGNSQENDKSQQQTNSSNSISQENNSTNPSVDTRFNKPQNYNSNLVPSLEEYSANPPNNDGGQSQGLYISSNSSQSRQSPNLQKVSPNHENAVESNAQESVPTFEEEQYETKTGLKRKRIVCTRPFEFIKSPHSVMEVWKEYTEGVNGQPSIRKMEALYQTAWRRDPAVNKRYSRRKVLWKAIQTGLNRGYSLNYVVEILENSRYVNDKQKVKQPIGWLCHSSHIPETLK
Test: PBM E-score (8-mer binding enrichment) (E-score (-0.5 to 0.5)); higher = stronger / more preferred TF binding
Conditions: protein concentration: 200 nM; construct: GST-full length
Over roughly 33,000 sequences, “E-score (-0.5 to 0.5)” has its median near -0.013; the highest 2% begin near 0.3. Many of the other results were omitted from the sample, so the highest values are more common in it than they were.
Category key, based on recorded PBM E-score: c1 = under -0.1, c2 = from -0.1 up to 0.04, c3 = 0.04 and over

>  <sequence.code>
CCGACATC

>  <study.target>
Msn1 (UniProt P22148)

>  <classification>
c2

$$$$
>  <sequence.code>
CGACACAA

>  <study.target>
Msn1 (UniProt P22148)

>  <classification>
c2

$$$$
>  <sequence.code>
GCCTTCCA

>  <study.target>
Msn1 (UniProt P22148)

>  <classification>
c1

$$$$
>  <sequence.code>
GAGAGTTA

>  <study.target>
Msn1 (UniProt P22148)

>  <classification>
c2

$$$$
>  <sequence.code>
AATGGAGC

>  <study.target>
Msn1 (UniProt P22148)

>  <classification>
c1

$$$$
>  <sequence.code>
GTCTGTGA

>  <study.target>
Msn1 (UniProt P22148)

>  <classification>
c3

$$$$
>  <sequence.code>
GGACACAA

>  <study.target>
Msn1 (UniProt P22148)

>  <classification>
c3

$$$$
>  <sequence.code>
CCTCAAGC

>  <study.target>
Msn1 (UniProt P22148)

>  <classification>
c1

$$$$
>  <sequence.code>
CCACTGGA

>  <study.target>
Msn1 (UniProt P22148)

>  <classification>
c1

$$$$
>  <sequence.code>
CACCCGTG

>  <study.target>
Msn1 (UniProt P22148)

>  <classification>
c1

$$$$
>  <sequence.code>
ATCACCAA

>  <study.target>
Msn1 (UniProt P22148)

>  <classification>
c2

$$$$
>  <sequence.code>
GCATTGAA

>  <study.target>
Msn1 (UniProt P22148)

>  <classification>
c2

$$$$
>  <sequence.code>
ATGATCTG

>  <study.target>
Msn1 (UniProt P22148)

>  <classification>
c3

$$$$
>  <sequence.code>
TGACACAA

>  <study.target>
Msn1 (UniProt P22148)

>  <classification>
c3

$$$$
>  <sequence.code>
ACTTACTG

>  <study.target>
Msn1 (UniProt P22148)

>  <classification>
c1

$$$$
>  <sequence.code>
TATGTAAA

>  <study.target>
Msn1 (UniProt P22148)

>  <classification>
c3

$$$$
>  <sequence.code>
ATAAGAGC

>  <study.target>
Msn1 (UniProt P22148)

>  <classification>
c2

$$$$
>  <sequence.code>
AGGACATC

>  <study.target>
Msn1 (UniProt P22148)

>  <classification>
c3

$$$$
>  <sequence.code>
GGACACAC

>  <study.target>
Msn1 (UniProt P22148)

>  <classification>
c3

$$$$
>  <sequence.code>
CTAGTAGC

>  <study.target>
Msn1 (UniProt P22148)

>  <classification>
c1

$$$$
>  <sequence.code>
GGACACCC

>  <study.target>
Msn1 (UniProt P22148)

>  <classification>
c2

$$$$
>  <sequence.code>
AGCCTTCC

>  <study.target>
Msn1 (UniProt P22148)

>  <classification>
c1

$$$$

Ref: the supplement of paper PMC3334620
